From: PubChem BioAssay (NCATS)

# SYSTEM: Glucocorticoid receptor (Homo sapiens)
# MEASUREMENT DESCRIPTION: GR-GFP Redistribution (AID 450)
# RUN CONDITIONS: U2OS GR-GFP nuclear translocation, laser cytometry, 2 h
Activity calls are given as the source filed them.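 Rule for the calls: active = compounds whose dose series gives a full or clear partial fitted curve of increased nuclear translocation; inconclusive = weak partial curve or effect only at the top dose; inactive = no dose-dependent translocation response.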
Your response should consist of one outcome taken from yes (1) (active), no (0) (inactive)

q: Answer briefly: the call reported for "CCOC(=O)[C@]1(CC(=O)O)CCCC1=O" in this assay.
a: no (0)

q: Answer briefly: the call reported for "C[C@@H](CCC[C@@H]1SC[C@H]2NC(=O)N[C@H]12)C(=O)O" in this assay.
a: no (0)

q: Answer briefly: the call reported for "C#CCOCCCC(=O)O" in this assay.
a: no (0)

q: Answer briefly: the call reported for "NCCOc1ccccn1" in this assay.
a: no (0)

q: Answer briefly: the call reported for "C[C@@]12CCC(=O)C=C1CC[C@H]1[C@@H]2[C@@H](O)C[C@]2(C)[C@@H]1CC[C@@]2(O)C(=O)COC(=O)C1CCCC1" in this assay.
a: yes (1)

q: Answer briefly: the call reported for "O=[N+]([O-])c1ccc(CSc2ncnc3c2ncn3[C@@H]2O[C@@H](CO)[C@@H](O)[C@H]2O)cc1" in this assay.
a: no (0)

q: Answer briefly: the call reported for "Oc1ccc(Cc2cc(Cl)cc(Cl)c2O)cc1Cl" in this assay.
a: no (0)

q: Answer briefly: the call reported for "O=C(O)CCCc1ccc2ccc3ccccc3c2c1" in this assay.
a: no (0)

q: Answer briefly: the call reported for "C(CCc1nnc2c(n1)CCCC2)Cc1nnc2c(n1)CCCC2" in this assay.
a: no (0)

q: Answer briefly: the call reported for "CC1=C(/C=C\C(=O)O)C(C)(C)CCC1" in this assay.
a: no (0)

q: Answer briefly: the call reported for "O=C(O)[C@H](Cc1ccc(O)c([N+](=O)[O-])c1)N1C(=O)c2ccccc2C1=O" in this assay.
a: no (0)

q: Answer briefly: the call reported for "O=C(O)c1nnsc1-c1ccc(-c2snnc2C(=O)O)cc1" in this assay.
a: no (0)

q: Answer briefly: the call reported for C[C@H]1CCCC=CC2C[C@H](OC(=O)CN(C)C)C[C@@H]2[C@@H](O)/C=C\C(=O)O1 (stereo partly drawn) in this assay.
a: no (0)

q: Answer briefly: the call reported for "O=C(O)c1oc(C(=O)O)c(C(=O)O)c1C(=O)O" in this assay.
a: no (0)

q: Answer briefly: the call reported for "N[C@@H](CNO)C(=O)O" in this assay.
a: no (0)

q: Answer briefly: the call reported for "C[C@@]12CC[C@@H]3[C@H](CCC4=CC(=O)CC[C@]43C)[C@@H]1CC[C@@H]2C(=O)COS(=O)(=O)c1ccc(Br)cc1" in this assay.
a: yes (1)

q: Answer briefly: the call reported for "O=C(O)CNC(=O)[C@H]1NC(C(F)(F)F)(C(F)(F)F)OC1(C(F)(F)F)C(F)(F)F" in this assay.
a: no (0)

q: Answer briefly: the call reported for "O=C(O)CSc1cc(-c2ccccc2)nc2ccccc12" in this assay.
a: no (0)

q: Answer briefly: the call reported for "O=C(O)CCc1nc(-c2ccccc2-n2cccc2)no1" in this assay.
a: no (0)

q: Answer briefly: the call reported for "C[C@]12CC[C@H]3c4ccc(O)cc4CC[C@@H]3[C@H]1C/C(=N/O)[C@H]2O" in this assay.
a: no (0)

q: Answer briefly: the call reported for "CC(NC(=O)c1ccccc1)(C(=O)O)C(=O)O" in this assay.
a: no (0)

q: Answer briefly: the call reported for "CC(C)(CCC(C)(C)c1ccccc1)c1ccccc1" in this assay.
a: no (0)

q: Answer briefly: the call reported for "Cc1c(Cl)c(S(N)(=O)=O)cc2c1=NC=NS=2(=O)O" in this assay.
a: no (0)
